pIC50: −log10 of the molar value.
Collected from the literature: pIC50 of various compounds toward Cyclin-dependent kinase 2 (Homo sapiens).
Decide by pIC50: equal to or exceeding 7 means YES, less means NO.

Some solved entries appear below for comparison.
{"columns": ["COMPOUND", "CLASS LABEL"],
 "data": [
  ["CCN(CC)Cc1cccc(Nc2nccc(-c3cnn4ncccc34)n2)c1", "YES"],
  ["CCCN(C)[C@H]1CCN(C(=O)c2ccc(Nc3nccc(-c4cnc(C)n4C(C)C)n3)cc2)C1", "YES"],
  ["CONC(=O)c1cc(Nc2ncnn3cc(NC(=O)OCC4CCCO4)c(C(C)C)c23)c(F)cc1F (stereo unspecified)", "NO"]
]}

hey, is pIC50 for this one >= 7? `O=C1Nc2cc3c(O)cccc3c3c(O)c(O)cc1c23`
NO

Another compound to look at: `COc1ccc(NC(=S)NC(=O)c2cn(-c3ccccc3)nc2-c2ccc(OC)cc2)cc1`
YES

Now try `CCN(CC)c1ccc2[nH]nc(NC(=O)Cc3ccccc3)c2c1` .
NO

Next up: `Clc1cncc(Nc2ccccc2)n1`
NO

Also, `COc1ccc(C(=O)Nc2ncc(SCc3ncc(C(C)(C)C)o3)s2)cc1OC` please.
YES

`Cc1nn2c(-c3ccc(Cl)cc3)ccnc2c1/C(N)=N/O` ?
NO

Also `Cc1cc2cc(-c3nnc(NC[C@@H](N)Cc4ccc(C(F)(F)F)cc4)s3)ccc2cn1` , if possible.
NO
